Below, each of the compounds is paired with its reported pIC50 value.
targetUnderTest: Casein kinase II subunit alpha (Homo sapiens, UniProt P68400)
Sequence (P68400 whole entry): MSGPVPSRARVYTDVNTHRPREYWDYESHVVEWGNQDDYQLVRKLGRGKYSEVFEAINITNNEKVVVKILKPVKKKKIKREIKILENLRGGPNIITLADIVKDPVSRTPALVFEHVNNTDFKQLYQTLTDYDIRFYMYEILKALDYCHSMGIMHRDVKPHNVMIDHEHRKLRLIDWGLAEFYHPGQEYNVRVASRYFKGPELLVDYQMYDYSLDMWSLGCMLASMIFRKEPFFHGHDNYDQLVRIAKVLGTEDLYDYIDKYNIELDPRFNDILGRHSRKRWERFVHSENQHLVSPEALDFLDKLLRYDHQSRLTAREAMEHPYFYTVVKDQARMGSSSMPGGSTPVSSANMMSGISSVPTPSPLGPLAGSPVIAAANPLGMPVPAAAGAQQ
protocolSummary: Displacement of fluorescent tracer from full-length human C-terminal NanoLuc-tagged CK2alpha expressed in HEK293T cells measured after 2 hrs by NanoBRET assay
Format: cell-based
pIC50: −log10 of the molar value.

lineNotation	targetUnderTest	result
COC(=O)c1ccc(-c2cnn3ccc(N(CCOCCO)C(=O)OC(C)(C)C)nc23)cc1O	Casein kinase II subunit alpha (Homo sapiens, UniProt P68400)	< 4.30

For the compound COC(=O)c1ccc2cc1OCCOCCNc1ccn3ncc-2c3n1 , what pIC50 is on record?
< 4.30

Hey, just so you know, these numbers are from ChEMBL document CHEMBL4706554.
